From: paper PMC7376644

assay: PZQ-ketoconazole DDI pharmacokinetic study in healthy volunteers; assay type: in vivo, human; conditions: male, human, plasma, oral, 20 mg/kg, 20 mg/kg PZQ plus 200 mg ketoconazole, n = 9; read-out: Elimination rate constant, treatment geo mean (converted)
measured endpoint: k el (s⁻¹)
Hi! Could you send only the number? It should be in s⁻¹, unit omitted.

[[record]]
structure_smiles_string = "O=C(C1CCCCC1)N1CC(=O)N2CCc3ccccc3[C@@H]2C1"
measured_endpoint = "k el"
units_label = "s⁻¹"
result_number = "4.44e-05"


Now for another entry.
Asked: Reported k el for "O=C(C1CCCCC1)N1CC(=O)N2CCc3ccccc3[C@H]2C1" : what is it?
Given back: 6.11e-05
